Values were extracted from ChEMBL document CHEMBL3433997.

- study system: Solute carrier family 2, facilitated glucose transporter member 1 (Homo sapiens)
- assay overview: ST_JUDE_LEISH: Cytotoxicity at 2uM final concentration against transgenic Leishmania Mexicana promastigotes LmGLUT1 that are glucose transport deficient and complemented with the human glucose transporter GLUT1. Activity is measured by DNA content using SYBR green in vitro
- Type: functional
Decision: inhibition compared against 5%; not below it gives t, below it gives f.

Previously resolved entries follow.
>>> print(df.to_string())
                                   molecule  label_value
0    O=[N+]([O-])c1nc(Br)n(Cc2ccc(Cl)cc2)n1            f
1  O=C(c1ccc(-c2ccc(-c3nc4cc(C(F)(F)F)ccc4[nH]3)s2)cc1)N1CCCCC1CN1CCC(O)C1 (stereo not given)            t
2  Cc1cc(NCCc2cccc(F)c2)nc(NC(=N)Nc2cccc(C(F)(F)F)c2)n1            f

In the following, a different molecule is considered.
Would you say CCC[C@@H]([C@@H](CC(C)C)C(=O)N[C@@H](CCCCNC(=O)OCc1ccccc1)C(=O)Nc1ncccn1)N(O)C=O shows inhibition at minimum 5%?
t

----------
- study system: Glucose transporter (Leishmania mexicana) (UniProt O61059)
- assay overview: ST_JUDE_LEISH: Cytotoxicity at 2uM final concentration against transgenic Leishmania Mexicana promastigotes LmGT2 that are glucose transport deficient and complemented with the L. Mexicana glucose transporter 2. Activity is measured by DNA content using SYBR green in vitro
- Type: functional
Entries and their inhibition values follow.
Could you give me the number in %? Just the number is fine.

Some compounds with known inhibition results, for comparison:
                                   compound  metric_name  unit_of_measurement  value
0  CCC(CC)(Cc1ccccc1)NC(=O)[C@H](CC(C)C)Nc1ccc(C#N)c2ccccc12   inhibition                    %   10.7
1  COc1ccc(-n2nc(C(=O)NCCC3=CCCCC3)c3ccccc3c2=O)cc1   inhibition                    %  -0.39
2  O=C(C=Cc1ccc(Cl)c(Cl)c1)NCCCCCN1CCC(CCNC(=O)c2cccc3ccccc23)CC1   inhibition                    %   2.03
3  Oc1ccc2[nH]c(-c3cccc(F)c3)nc2c1CN1CCC(O)(c2ccccc2)CC1   inhibition                    %    1.7

// next entry
What value of inhibition on Glucose transporter (Leishmania mexicana) (UniProt O61059) does CCCCCCCc1c(C)nc2cccc(OC)c2c1O have?
33.9

----------
- study system: Hexose transporter 1 (Plasmodium falciparum)
- assay overview: ST_JUDE_LEISH: Cytotoxicity at 2uM final concentration against transgenic Leishmania Mexicana promastigotes LmPfHT that are glucose transport deficient and complemented with the Plasmodium falciparum hexose transporter. Activity is measured by DNA content using SYBR green in vitro
- Assay type: functional
metric name: inhibition (%)
Numbers only here, please. The scale is %.

Recorded inhibition, per entry:
>>> print(df.to_string())
                                   molecule                              study_system  metric_name  value
0  Cc1nc(-c2ccc(-c3ccc(C(=O)Nc4ccc(Cl)c(N5CCN(C)CC5)c4)cc3)c(C)c2)no1  Hexose transporter 1 (Plasmodium falciparum)   inhibition   7.83
1  COc1cc(-c2cc3cc(Cl)c(Cl)cc3[nH]2)ccc1C(=O)NC1CCN(Cc2ccccc2)CC1  Hexose transporter 1 (Plasmodium falciparum)   inhibition   2.67
2  N#Cc1ccc(N(CCOc2ccc3c(c2)CCC(=O)N3)Cc2ccccc2C(F)(F)F)cc1C(F)(F)F  Hexose transporter 1 (Plasmodium falciparum)   inhibition   4.94

Return reported inhibition; argument: O=C(Nc1cccc(-c2ccc(-c3nc4ccccc4[nH]3)cc2)c1)c1cccnc1
0.4

Data request, read-out inhibition, for O=C(Nc1ccccc1F)NC1CCN(c2ccnc(Nc3ccc(F)cc3)n2)CC1
2.19

Request the reported inhibition associated with N=C(N)NC(=O)Nc1cc(Cl)c(Br)c(Cl)c1
6.09

Request the reported inhibition associated with CCc1ccc(NC(=O)c2ccc(CN3CCCN(Cc4cccs4)CC3)cc2)cc1
12.6

Which inhibition value belongs to COc1ccc(CNc2ccnc(-n3cnc4cc(C)c(C)cc43)n2)cc1Cl ?
3.69

Which inhibition value is on record for CCNc1cc(C)nc(Nc2ccccc2)n1 ?
5.92

# input molecule: O=C(c1ccc(Cl)cc1Cl)N1CCCC(C(F)(F)F)C1 (stereo not drawn) ; wanted: its inhibition
11.4

Please report the recorded inhibition for CCC1CN(CCCn2c3ccccc3c3ccccc32)C(CC)CN1 (stereo not drawn) .
-0.59

Any idea what its inhibition is? The molecule is O=C(Nc1cccc(-c2ccc(CN3CCNCC3)cc2)c1)c1cccc(Cl)c1
-1.87

Using the record for CN(C)S(=O)(=O)n1ncc2c3c(N)nc(N)nc3ccc21 , report its inhibition.
1.22
